PBM binding z-score listing for selected sequences.
- Test system: PPARg DBDmut:RXRa IVT, anti-PPARg (DBD mutation: PPARg1 K132A/R137A, NR concentration 270 nM, RXRa partner concentration 90 nM)
- ASSAY_NOTES: PBM binding z-score (relative to random genomic background probes); higher = stronger binding; sequences stand for … in GC…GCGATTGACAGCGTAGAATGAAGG

ENTRY_SEQUENCE | PBM binding z-score
GCTAGTTGGTCAGTAAAAGGTCACATACCGGTCG | 0.372
CCTCGGAGCACAGAAGGTCAGAGCTGTCCGCTTT | -1.25
CCTACTGGGCCACGGAAGGTCATTGATTCAGTGA | -0.609
CGTCAAAGTTCAAGGTAACGGAACAGAAAGCAGC | 0.485
TGAATGAGGTTATGAGATCAGGGAACGTTGCAAA | 0.285
ATCGAAAGGTCGAAGGTTAGTATACCCACCCGAA | 1.15
TCGAGTAGGTTAGTCGGGCCATTCAGCCAACATA | -0.829
TATAGCAGGCCAGAGGGTCACTCAAGAGGTACGG | 0.475
CTCGAAAGGTCGGTTGCGGTGAGTATACGGATAA | 0.157
ATCTCTAGGTAAAGATACTTCAGTGAATGCAAAT | 1.1
TCTAGCAGGCCAGAGGGTCACTCAAGAGGTACGG | -0.27
TCTTGTAGATCAACAGGAGATTAAGAAAGATCGA | 1.52
CTCGAAAGGTCGTGCTCAGGTGAGTATTCCAAAC | 0.28
TAGCCTAGGTCAGGTCGGGCCAGTATACGCTATA | -0.681
CGAACTACGTCAGAACAGGACAGTGAAGGATGAT | 0.627
TAGCCTAGGTCATTCAGGGGCCAGTTTAGAAAGC | 0.115
TCGAGTAGGTTAGTCTGGGCATTCAGCCAACATA | -0.593
TTACCAAGGTGAAGGTCGGTGATCCCTCTGTAGA | -0.0946
CTCGTAAGGTCGTGCTCAGGTGAGTATACCAAAC | 0.192
GTGACTGGGGCAAAGCAGGTTACCATAAGGTTGG | 1.15
TCGCGGAGGACACGAAGGTCAGAGCTTTCCAGAG | -0.818
CCTCGGAGGACAACAGGAGATCAGAGCTGCCAGA | -1.13
AGCATGAGGTTATACGTAGATCAGGGAAGAAAGT | 0.86
CGAACTAGGTCATCCAGAACAGTGAATACATTGA | 6.73
ATCTCTAGGTAAAGATAGTTCAGGGAATGCAAAT | 1.02
GCAGACAGGTGAAACGCAAGTAACTCAGGGTGGC | -0.728
